# Protocol description: CCTE_Shafer_MEA_dev_per_network_spike_spike_number_mean: CCTE's Neural Network Formation Assay for Mean Number of Spikes in a Network Spike, Shafer Lab (AID 2284053);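 on AC50: fitted as decrease in spikes per network spike relative to DMSO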
Active and inactive are the calls of the source. How the source made its calls: active means hit-call score of the fitted dose curve at least 0.9, where 1 is the maximum; inactive means score below 0.9.
Property label: AC50

Please review the entries below; each comes with its answer.
[[record]]
molecule = "CCN(CC)c1nc(C)cc(OP(=S)(OC)OC)n1"
recorded_measurement = "29.5 µM (active)"

[[record]]
molecule = "CC1(C)C(C(=O)OC(C#N)c2cccc(Oc3ccccc3)c2)C1(C)C (stereo not given)"
recorded_measurement = "10 µM (active)"

[[record]]
molecule = "COP(=O)(OC)O/C(C)=C/C(=O)N(C)C"
recorded_measurement = "inactive"

[[record]]
molecule = "CCCN(CC)CC1COC2(CCC(C(C)(C)C)CC2)O1 (stereo not given)"
recorded_measurement = "0.272 µM (active)"


// field: AC50; key: CCNC(=O)NC(=O)C(C#N)=NOC ; value = inactive

The value of AC50 measured for the molecule COP(=S)(OC)SCn1nnc2ccccc2c1=O turned out to be 24.9 µM (active)

For COC(=O)N(C(=O)N1CO[C@@]2(C(=O)OC)Cc3cc(Cl)ccc3C2=N1)c1ccc(OC(F)(F)F)cc1 the molecule record lists AC50 as inactive

Given item CS(=O)(=O)c1cc(C(F)(F)F)ccc1C(=O)c1cnoc1C1CC1 , the value recorded as its AC50 is inactive

For reference, reported AC50 for CN/C(=N\[N+](=O)[O-])NCc1cnc(Cl)s1 stands at inactive

The recorded AC50 for CCOC(=O)C(C)OC(=O)c1cc(Oc2ccc(C(F)(F)F)cc2Cl)ccc1[N+](=O)[O-] (stereo not given) is inactive

====

# System: frog Estrogen Receptor (ESR2), gene 100174814
# Protocol description: ATG_frER2_XSP1: Attagene TRANS-FACTORIAL Multi-Species (XSP1) HepG2 Assay for frog Estrogen Receptor (ESR2) (AID 2283774)
Results filed as inconclusive are left out. Active and inactive are the calls of the source. The calls were made as follows: active = hit-call score of the fitted dose curve at least 0.9, where 1 is the maximum; inconclusive = response in the unintended direction; inactive = score below 0.9.
Property label: AC50

Here are 3 compounds together with their reported answers.
[[record]]
compound = "CC1(C)C(C=C(Cl)Cl)C1C(=O)OC(C#N)c1cccc(Oc2ccccc2)c1 (centres undefined)"
system_tested = "frog Estrogen Receptor (ESR2), gene 100174814"
recorded_measurement = "27.3 µM (active)"

[[record]]
compound = "CSC(=O)c1c(C(F)F)nc(C(F)(F)F)c(C(=O)SC)c1CC(C)C"
system_tested = "frog Estrogen Receptor (ESR2), gene 100174814"
recorded_measurement = "0.955 µM (active)"

[[record]]
compound = "CCN(CC)C(=O)C(C)Oc1cccc2ccccc12 (centres undefined)"
system_tested = "frog Estrogen Receptor (ESR2), gene 100174814"
recorded_measurement = "27.4 µM (active)"


From here, focus on the item given below.
# value of AC50, frog Estrogen Receptor (ESR2), gene 100174814, item COP(=S)(OC)Oc1ccc([N+](=O)[O-])c(C)c1 = 65.9 µM (active)

====

# Protocol description: BSK_KF3CT_SRB: Viability Assessment in the BioMAP Diversity Plus: KF3CT Assay (AID 2283069);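 further: total protein by sulforhodamine B staining as a cytotoxicity measure; read 24 h after compound addition; fitted for both signal gain and loss against DMSO baseline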
# Experimental conditions: primary human keratinocytes with fibroblasts
Activity calls are given as the source filed them. Rule for the calls: active = hit-call score of the fitted dose curve at least 0.9, where 1 is the maximum; inactive = score below 0.9.
The reply should be one of these categories: true (1) = active, false (0) = inactive

Here's what some known entries look like.
[[record]]
molecule = "CCOc1cc(C(C)(C)C)ccc1C1COC(c2c(F)cccc2F)=N1 (configuration not stated)"
group_label = "true (1)"

[[record]]
molecule = "CCCCC(O)(Cn1cncn1)c1ccc(Cl)cc1Cl (configuration not stated)"
group_label = "false (0)"


Exercise: Which outcome did this test record for the molecule CSC(=O)c1c(C(F)F)nc(C(F)(F)F)c(C(=O)SC)c1CC(C)C ?
Key: false (0)

Exercise: # lookup: test call for Nc1c(Cl)c(F)nc(OCC(=O)O)c1Cl
Key: false (0)

Exercise: Field: outcome | Entry: CS(=O)(=O)c1cc(C(F)(F)F)ccc1C(=O)c1cnoc1C1CC1
Key: false (0)

Exercise: Assay result, entry CCSC(=O)N1CCCCCC1 — outcome?
Key: false (0)

Exercise: Hi, sorry to bother you, what did the test record for CCN(CC)c1nc(C)cc(OP(=S)(OC)OC)n1 ?
Key: false (0)

Exercise: Identify the outcome logged in this assay for the molecule shown: OC(c1ccc(Cl)cc1)(c1ccc(Cl)cc1)C(Cl)(Cl)Cl
Key: true (1)
